Just for reference, PubChem BioAssay (NCI) is where these values come from.

- System: SF-295 CNS
- Procedure Details: NCI tumour cell line growth inhibition, 48 h
Measurement Kind: TGI (µM)

Molecule	Measurement Kind	Unit Descriptor	Readout Relation	Value Reported
COC1=CC(=O)OC(/C=C(C)/C=C/C2=C(C)CCCC2(C)C)C1 (stereo not given)	TGI	µM	>	100
O=C(O)C1=CN(c2ccncc2)C(c2ccco2)=CC1c1ccccc1[N+](=O)[O-] (stereo not given)	TGI	µM	=	26.2
O=C(/C=C/c1nnc2n(Cc3ccccc3)c(=O)c3c4c(sc3n12)CCCC4)c1ccccc1	TGI	µM	>	100
COc1cc2c3c(n(CCCN4CCCNCC4)c(=O)c2cc1OC)-c1cc2c(cc1C3=O)OCO2	TGI	µM	=	2.66
Oc1c(Cl)c(Cl)c(O)c(CCNc2nccs2)c1Cl	TGI	µM	=	41.5
